The reported numbers originate from ChEMBL document CHEMBL4765440.

IC50, Acetylcholinesterase (Homo sapiens, UniProt P22303), per-entry values.

{"columns": ["MOL SMILES", "IC50 (µM)"],
 "data": [
  ["C=CC(C)(C)c1cc([C@@H]2CC(=O)c3c(O)cc(O)c(CC=C(C)C)c3O2)c(O)cc1O", 29],
  ["CC(C)=CCc1c(O)cc(O)c2c1O[C@H](c1ccccc1)CC2=O", 0.0064]
]}

====

Catalogue of compounds with associated CC50 at 48 h
test: Cytotoxicity against Sprague-Dawley rat primary cerebellar granule neurons assessed as reduction in cell viability measured after 48 hrs by MTT assay; format: tissue-based, Cerebellar granule neurone; conditions: read-out: LC50

{"columns": ["MOL SMILES", "CC50 at 48 h"],
 "data": [
  ["O=C1C[C@@H](c2ccccc2)Oc2cc(O)cc(O)c21", "247 µM"],
  ["C=CC(C)(C)c1cc([C@@H]2CC(=O)c3c(O)cc(O)c(CC=C(C)C)c3O2)c(O)cc1O", "12.5 µM"],
  ["CC(C)=CCc1c(O)cc2c(c1O)C(=O)C[C@@H](c1ccc(O)c(O)c1CC=C(C)C)O2", "> 300 µM"],
  ["C=CC(C)(C)c1cc([C@@H]2CC(=O)c3c(cc(O)c(CC=C(C)C)c3O)O2)c(OC)cc1O", "40.7 µM"],
  ["C=CC(C)(C)c1cc([C@@H]2CC(=O)c3c(O)cc(O)c(CC=C(C)C)c3O2)c(OC)cc1O", "> 300 µM"],
  ["CC(C)=CCc1c(O)cc(O)c2c1O[C@H](c1ccccc1)CC2=O", "44.5 µM"]
]}
